Biological target: T1, human IFNAR-1 protein (form not stated) (human, UniProt P17181 28-436, limits assumed)
T1 construct: bispecific ELISA
T1 sequence (looked up): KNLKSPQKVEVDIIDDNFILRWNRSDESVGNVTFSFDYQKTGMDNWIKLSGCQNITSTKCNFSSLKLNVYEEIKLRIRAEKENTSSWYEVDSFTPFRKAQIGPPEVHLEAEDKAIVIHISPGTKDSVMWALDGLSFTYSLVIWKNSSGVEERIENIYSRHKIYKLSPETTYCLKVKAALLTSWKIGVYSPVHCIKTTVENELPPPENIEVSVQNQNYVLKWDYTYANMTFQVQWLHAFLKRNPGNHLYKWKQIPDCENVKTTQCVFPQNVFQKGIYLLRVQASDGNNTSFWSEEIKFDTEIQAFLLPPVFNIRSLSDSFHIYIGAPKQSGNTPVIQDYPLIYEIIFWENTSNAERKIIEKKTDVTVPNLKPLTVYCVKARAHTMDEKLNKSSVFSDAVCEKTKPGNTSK
Assay: affinity ranking of expressed humanized 8G11 IgGs (method not named)
metric: kon (M⁻¹ s⁻¹)
API: value field is a number in M⁻¹ s⁻¹; no unit string.

Known results for binders:
8G11 humanized VH4 + VL4 (antibody, V domains shown, Humanized IgG expressed in HEK293; also called VH4 + VL4 (8G11)) VH: QVQLVQSGAEVVKPGASVKLSCKGSGFNIKDYYMHWVKQAPGQGLEWIGRIDPEDAETKYAPKFQGRATITADTSTSTAYLELSSLRSEDTAVYYCARGGNFYVMDYWGQGTLVTVSS VL: DIQMTQSPSFLSTSVGDRVTVTCKASQNVGTNVVWYQQKPGKSPKVLIYSASYRVSGVPSRFSGSGSGTEFTLIISSVQPEDFATYFCQQKNNYPYTFGQGTKLEIK	283000
8G11 humanized VH3 + VL1 (antibody, V domains shown, Humanized IgG expressed in HEK293; also called VH3 + VL1 (8G11)) VH: QVQLVQSGAEVVKPGASVKVSCKGSGFNIKDYYMHWVKQAPGQGLEWIGRIDPEDAETKYAPKFQGRVTITADTSTSTVYLELSSLRSEDTAVYYCARGGNFYVMDYWGQGTLVTVSS VL: DIQLTQSPSFLSASVGDRVTITCKASQNVGTNVVWYQQKPGKAPKLLIYSASYRVSGVPSRFSGSGSGTEFTLTISSLQPEDFATYYCQQKNNYPYTFGQGTKLEIK	256000

Ask: Requested read-out: kon. Entry: 8G11 humanized VH3 + VL3 (antibody, V domains shown, Humanized IgG expressed in HEK293; also called VH3 + VL3 (8G11)) VH: QVQLVQSGAEVVKPGASVKVSCKGSGFNIKDYYMHWVKQAPGQGLEWIGRIDPEDAETKYAPKFQGRVTITADTSTSTVYLELSSLRSEDTAVYYCARGGNFYVMDYWGQGTLVTVSS VL: DIQLTQSPSFLSTSVGDRVTITCKASQNVGTNVVWYQQKPGKSPKVLIYSASYRVSGVPSRFSGSGSGTEFTLIISSVQPEDFATYFCQQKNNYPYTFGQGTKLEIK
Result: 301000
